Origin of values: patent US9255100B2

ASSAYED_TARGET: N-terminally GST-tagged human full length recombinant Mps-1 kinase (Homo sapiens)
Construct: N-terminally GST-tagged human full length recombinant Mps-1 kinase; purchased Invitrogen, Karslruhe, Germany PV4071
Sequence (P33981 1-857): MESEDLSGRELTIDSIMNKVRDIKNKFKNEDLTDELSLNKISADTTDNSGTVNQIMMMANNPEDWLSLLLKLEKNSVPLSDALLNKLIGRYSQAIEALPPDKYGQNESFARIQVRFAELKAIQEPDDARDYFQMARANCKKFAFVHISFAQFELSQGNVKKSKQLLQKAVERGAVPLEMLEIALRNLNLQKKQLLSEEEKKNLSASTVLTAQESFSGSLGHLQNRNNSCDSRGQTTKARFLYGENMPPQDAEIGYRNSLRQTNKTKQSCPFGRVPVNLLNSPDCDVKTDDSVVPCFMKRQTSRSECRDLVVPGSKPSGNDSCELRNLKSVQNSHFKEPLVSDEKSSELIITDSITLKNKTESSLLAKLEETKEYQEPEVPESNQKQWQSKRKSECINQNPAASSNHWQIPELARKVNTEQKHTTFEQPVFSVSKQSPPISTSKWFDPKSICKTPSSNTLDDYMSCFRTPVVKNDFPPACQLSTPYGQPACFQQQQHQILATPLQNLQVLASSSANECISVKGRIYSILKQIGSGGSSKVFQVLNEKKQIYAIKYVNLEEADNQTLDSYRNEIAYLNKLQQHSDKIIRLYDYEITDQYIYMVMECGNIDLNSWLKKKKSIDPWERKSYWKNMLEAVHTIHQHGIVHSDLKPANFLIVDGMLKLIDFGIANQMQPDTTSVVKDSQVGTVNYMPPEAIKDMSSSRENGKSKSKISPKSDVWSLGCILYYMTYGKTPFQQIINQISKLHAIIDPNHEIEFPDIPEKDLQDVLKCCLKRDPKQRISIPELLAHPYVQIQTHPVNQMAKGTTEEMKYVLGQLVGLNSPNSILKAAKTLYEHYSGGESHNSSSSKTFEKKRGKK
TEST_DETAILS: Mps-1 kinase assay (TR-FRET)
Assay type: biochemical
TEST_CONTEXT: Mps1 IC50 [nM], 10 μM ATP, 1 μM peptide substrate, 60 min at 22° C.
compounds and their reported IC50
Entry rule: numbers only, all in nM.

Please review the entries below; each comes with its answer.
COMPOUND	IC50 [nM]
COc1ccc(Oc2cc(NCC(C)(C)O)c3ncc(-c4ccc(C(=O)NC5CC5)c(C)c4)n3n2)cc1	0.1
Cc1cc(-c2cnc3c(NCCC(F)(F)F)cc(N4CCCc5cccc(O)c54)nn23)ccc1C(=O)NC1CC1	1.6
Cc1cc(F)cc(Nc2cc(NCCC(F)(F)F)c3ncc(-c4ccc(C(=O)NC5CC5)c(C)c4)n3n2)c1	0.2
Cc1cc(-c2cnc3c(NCc4ccn(C)n4)cc(Oc4cccc(F)c4)nn23)ccc1C(=O)NC1CC1	0.1
Cc1cc(-c2cnc3c(NCC4CCSCC4)cc(Sc4ccccc4O)nn23)ccc1C(=O)NC1CC1	0.2
COc1ccccc1Sc1cc(NCC(C)(C)O)c2ncc(-c3ccc(C(=O)NC4CC4)c(C)c3)n2n1 [Example 73B]	3.8
Cc1ccc(F)cc1Nc1cc(NCCCC(F)(F)F)c2ncc(-c3ccc(C(=O)NC4CC4)c(C)c3)n2n1	0.6
Cc1cc(-c2cnc3c(NC[C@H]4CC[S@+]([O-])CC4)cc(Oc4cccnc4)nn23)ccc1C(=O)NC1CC1 [Example 296C]	0.2
Cc1cc(-c2cnc3c(NCC(C)(C)O)cc(Sc4cccc(OC(C)C)c4)nn23)ccc1C(=O)NC1CC1	1
C/C=C(\C)c1cc(NCCC(F)(F)F)c2ncc(-c3ccc(C(=O)NC4CC4)c(C)c3)n2n1	1.2

Please fill in: IC50 reported for Cc1cc(-c2cnc3c(NCCC(F)(F)F)cc(O/C=C(/F)C(F)(F)CO)nn23)ccc1C(=O)NC1CC1 [Example 278B] = 1

Please fill in: IC50 reported for Cc1cc(-c2cnc3c(NCC4CCC(F)(F)CC4)cc(Oc4cccc(F)c4)nn23)ccc1C(=O)NC1CC1 = 0.3

Please fill in: IC50 reported for Cc1cc(-c2cnc3c(NCCC(F)(F)F)cc(Oc4cccc(F)c4)nn23)ccc1C(=O)NCCC(F)(F)F = 1.6

Please fill in: IC50 reported for Cc1cc(-c2cnc3c(NCC(C)(C)O)cc(-c4cc[nH]n4)nn23)ccc1C(=O)NC1CC1 = 13.6

Please fill in: IC50 reported for CCN(CC)CCSc1cc(NCCC(F)(F)F)c2ncc(-c3ccc(C(=O)NC4CC4)c(C)c3)n2n1 = 6.9

----------
ASSAYED_TARGET: N-terminally GST-tagged human full length recombinant Mps-1 kinase (Homo sapiens, UniProt P33981)
Construct: N-terminally GST-tagged human full length recombinant Mps-1 kinase; purchased Invitrogen, Karslruhe, Germany PV4071
Sequence (P33981 1-857): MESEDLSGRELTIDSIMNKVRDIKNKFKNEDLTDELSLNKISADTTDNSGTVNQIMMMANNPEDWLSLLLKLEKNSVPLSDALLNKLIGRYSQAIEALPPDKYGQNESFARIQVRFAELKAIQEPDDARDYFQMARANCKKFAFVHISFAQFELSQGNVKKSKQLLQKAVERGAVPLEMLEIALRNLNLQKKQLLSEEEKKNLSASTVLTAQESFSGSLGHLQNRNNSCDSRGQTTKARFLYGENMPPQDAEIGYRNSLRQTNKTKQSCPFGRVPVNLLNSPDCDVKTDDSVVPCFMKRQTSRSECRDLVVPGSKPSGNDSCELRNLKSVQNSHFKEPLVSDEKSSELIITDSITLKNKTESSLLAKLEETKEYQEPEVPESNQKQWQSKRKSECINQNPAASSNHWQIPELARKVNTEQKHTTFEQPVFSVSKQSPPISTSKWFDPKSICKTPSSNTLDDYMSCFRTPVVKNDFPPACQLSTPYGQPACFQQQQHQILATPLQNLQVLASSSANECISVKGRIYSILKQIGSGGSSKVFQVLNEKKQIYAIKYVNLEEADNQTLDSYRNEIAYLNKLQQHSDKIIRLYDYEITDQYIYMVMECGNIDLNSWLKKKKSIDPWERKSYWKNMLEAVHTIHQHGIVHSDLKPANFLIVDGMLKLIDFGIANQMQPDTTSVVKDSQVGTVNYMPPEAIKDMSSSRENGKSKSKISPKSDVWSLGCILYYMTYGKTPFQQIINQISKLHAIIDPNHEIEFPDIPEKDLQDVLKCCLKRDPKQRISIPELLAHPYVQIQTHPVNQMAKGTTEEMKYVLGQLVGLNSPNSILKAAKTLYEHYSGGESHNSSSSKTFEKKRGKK
TEST_DETAILS: Mps-1 kinase assay (TR-FRET)
Type: biochemical
TEST_CONTEXT: 10 μM ATP, 1 μM peptide substrate, 60 min at 22° C., read-out: Mps1 IC50
QUANTITY_KIND: IC50 (nM)
Entry rule: numbers only, all in nM.

Please review the entries below; each comes with its answer.
COMPOUND	RESULT_UNIT	IC50
Cc1cc(-c2cnc3c(NCC4CC[S+]([O-])CC4)cc(Sc4ccccc4)nn23)ccc1C(=O)NC1CC1 (stereo not drawn) [Example 303B]	nM	0.2
Cc1cc(-c2cnc3c(NCC4CC[S+]([O-])CC4)cc(Oc4cccc(F)c4)nn23)ccc1C(=O)NC1CC1 (mixture of isomers) [Example 298B]	nM	0.1

Now consider the entry below.
Please fill in: IC50 reported for Cc1cc(-c2cnc3c(NCC4CC[S+]([O-])CC4)cc(Oc4ccc(F)cc4)nn23)ccc1C(=O)NC1CC1 (mixture of isomers) [Example 295B] = 0.2

----------
ASSAYED_TARGET: N-terminally GST-tagged human full length recombinant Mps-1 kinase (Homo sapiens, UniProt P33981)
Construct: N-terminally GST-tagged human full length recombinant Mps-1 kinase; purchased Invitrogen, Karslruhe, Germany PV4071
Sequence (P33981 1-857): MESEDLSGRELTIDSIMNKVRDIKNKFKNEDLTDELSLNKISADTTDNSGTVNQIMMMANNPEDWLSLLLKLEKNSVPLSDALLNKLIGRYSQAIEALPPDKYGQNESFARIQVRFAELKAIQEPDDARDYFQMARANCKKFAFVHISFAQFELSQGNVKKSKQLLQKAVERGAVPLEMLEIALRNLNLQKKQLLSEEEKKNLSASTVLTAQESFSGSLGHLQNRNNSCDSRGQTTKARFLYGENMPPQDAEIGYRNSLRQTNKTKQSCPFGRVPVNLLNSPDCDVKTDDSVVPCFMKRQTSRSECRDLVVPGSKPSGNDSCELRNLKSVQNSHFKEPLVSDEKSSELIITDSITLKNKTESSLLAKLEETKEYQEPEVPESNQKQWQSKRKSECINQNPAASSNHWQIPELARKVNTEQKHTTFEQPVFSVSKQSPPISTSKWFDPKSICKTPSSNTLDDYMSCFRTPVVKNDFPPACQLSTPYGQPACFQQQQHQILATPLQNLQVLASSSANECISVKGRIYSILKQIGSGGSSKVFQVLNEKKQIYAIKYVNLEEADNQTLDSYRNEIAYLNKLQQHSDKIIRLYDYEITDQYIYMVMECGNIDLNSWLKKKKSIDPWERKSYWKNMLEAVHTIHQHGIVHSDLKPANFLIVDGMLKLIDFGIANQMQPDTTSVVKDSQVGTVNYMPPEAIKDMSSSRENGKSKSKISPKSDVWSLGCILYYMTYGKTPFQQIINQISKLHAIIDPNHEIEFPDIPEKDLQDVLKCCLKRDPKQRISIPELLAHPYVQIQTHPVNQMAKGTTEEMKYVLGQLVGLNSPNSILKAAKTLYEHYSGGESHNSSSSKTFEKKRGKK
TEST_DETAILS: Mps-1 kinase assay (TR-FRET)
Type: biochemical
TEST_CONTEXT: Mps1 IC50 [nM], 10 μM ATP, 1 μM peptide substrate, 60 min at 22° C.
QUANTITY_KIND: log10(IC50) (log10 of the value in nM)
Scale: decimal log of IC50, IC50 in nM.

COMPOUND	VALUE
Cc1cc(-c2cnc3c(NCC(C)(C)O)cc(Nc4cccc(O)c4)nn23)ccc1C(=O)NC1CC1	-0.40
Cc1cc(-c2cnc3c(NCC4COCCO4)cc(-c4ccncc4)nn23)ccc1C(=O)NC1CC1 (racemic)	0.48
Cc1ccc(F)cc1Oc1cc(NCCN2CCOCC2)c2ncc(-c3ccc(C(=O)NC4CC4)c(C)c3)n2n1	-0.70

Please fill in: log10(IC50) reported for CC(C)CNc1cc(-c2ccc(O)cc2)nn2c(-c3ccc(C(=O)NC4CC4)cc3)cnc12 = 0.38

Please fill in: log10(IC50) reported for Cc1cc(-c2cnc3c(NCC(C)(C)O)cc(-c4cc(C(F)(F)F)nn4C)nn23)ccc1C(=O)NC1CC1 = 0.79

Please fill in: log10(IC50) reported for Cc1cc(-c2cnc3c(NCCC(F)(F)F)cc(Oc4ccc(F)cc4)nn23)ccc1C(=O)NC1CC1 = -0.70

Please fill in: log10(IC50) reported for Cc1cc(Sc2cc(NCC(C)(C)O)c3ncc(-c4ccc(C(=O)NC5CC5)c(C)c4)n3n2)ccc1F = -0.15

Please fill in: log10(IC50) reported for Cc1cc(-c2cnc3c(NCCC(F)(F)F)cc(Sc4ccc(Cl)cc4CO)nn23)ccc1C(=O)NC1CC1 = -0.40

Please fill in: log10(IC50) reported for COc1cc(C(=O)NC2CC2)ccc1-c1cnc2c(NCCC(F)(F)F)cc(-c3ccnn3C)nn12 = 0.85

Please fill in: log10(IC50) reported for Cc1cc(-c2cnc3c(NCCC(F)(F)F)cc(Sc4ccc(F)cc4)nn23)ccc1C(=O)NC1CC1 = -0.52

Please fill in: log10(IC50) reported for Cc1cc(-c2cnc3c(NCCC(F)(F)F)cc(Nc4cccnc4)nn23)ccc1C(=O)NC1CC1 = -0.70
